- target_of_assay: UniProtKB P21396
- Sequence (P21396 1-526): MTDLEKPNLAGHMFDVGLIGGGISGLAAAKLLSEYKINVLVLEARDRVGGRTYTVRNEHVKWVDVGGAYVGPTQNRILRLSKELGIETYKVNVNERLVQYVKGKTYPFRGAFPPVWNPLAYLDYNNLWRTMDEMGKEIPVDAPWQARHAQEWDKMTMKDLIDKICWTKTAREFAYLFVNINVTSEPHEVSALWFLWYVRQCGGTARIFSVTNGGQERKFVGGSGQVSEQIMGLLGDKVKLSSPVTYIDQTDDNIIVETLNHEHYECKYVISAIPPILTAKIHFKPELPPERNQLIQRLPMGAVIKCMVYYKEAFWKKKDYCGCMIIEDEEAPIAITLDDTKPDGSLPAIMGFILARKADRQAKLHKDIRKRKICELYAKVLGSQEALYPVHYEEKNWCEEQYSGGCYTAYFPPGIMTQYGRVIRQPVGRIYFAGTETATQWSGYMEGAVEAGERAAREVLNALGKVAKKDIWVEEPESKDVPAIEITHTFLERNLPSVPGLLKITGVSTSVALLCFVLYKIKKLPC
readout_name: IC50 (µM)
Give bare numbers, in µM.

Would you kindly share the measured IC50 for "C#CCN(C)Cc1cc2ccccc2oc1=O" ?
7

----------
- target_of_assay: electric eel AChE (eeAChE) (Electrophorus electricus)
- Construct: purchased Sigma Aldrich, Milan, Italy
- test_summary: biochemical
- applied_conditions: from electric eel; read-out: AChE IC50
Hi! Just check whether IC50 is below 8 µM. Below gives YES, equal or above gives NO.

Please determine if "CNC(=O)CNCc1cc2cc(OC)c(OC)cc2oc1=O" is below 8 µM in terms of IC50.
YES

One more compound: "C#CCN(C)Cc1cc2cc(OC)c(O)cc2oc1=O"
NO

One more compound: "C#CCN(C)Cc1cc2ccccc2oc1=O"
NO

One more compound: "COc1ccc2cc(CN(C)Cc3cccc(F)c3)c(=O)oc2c1"
YES

Others:
Please determine if "COc1ccc2cc(CN(C)Cc3cccc(C#N)c3)c(=O)oc2c1" is below 8 µM in terms of IC50.
NO

One more compound: "COc1cc2cc(CNCc3ccc(C#N)cc3)c(=O)oc2cc1OC"
NO

One more compound: "NC(=O)CNCc1cc2ccccc2oc1=O"
NO

----------
I'd appreciate it if you could supply inhibition at 10 µM values for the items below.
- target_of_assay: equine serum butyrylcholinesterase (esBChE) (Equus caballus)
- Construct: BChE from equine serum (13 U/mg; Sigma); purchased Sigma; host or cells: equine serum
- test_summary: BChE inhibition, Ellman's method
- Assay type: biochemical
- applied_conditions: read-out: BChE % inhibition at 10 µM; from equine serum; 10 µM
Numbers only, in %.

Please look at the items below and tell me inhibition at 10 µM for each one, in order.
1. COc1cc2cc(CNCc3ccc(C#N)cc3)c(=O)oc2cc1OC
2. COc1cc2cc(CNCc3ccccc3)c(=O)oc2cc1OC
3. NC(=O)CNCc1cc2ccccc2oc1=O
4. COc1ccc2cc(CN(C)Cc3cccc(F)c3)c(=O)oc2c1
5. COc1cc2cc(CN(C)Cc3cccc(Cl)c3)c(=O)oc2cc1OC

1. 13
2. 27
3. 6.2
4. 8.5
5. 19

Please look at the items below and tell me inhibition at 10 µM for each one, in order.
1. CN(Cc1cccc(F)c1)Cc1cc2ccccc2oc1=O
2. COc1cc2cc(CNCC(N)=O)c(=O)oc2cc1OC
3. CNC(=O)CNCc1cc2cc(OC)c(OC)cc2oc1=O
4. CNCc1cc2cc(OC)c(OC)cc2oc1=O

15
10
11
10

----------
I'd appreciate it if you could supply inhibition at 10 µM values for the items below.
- target_of_assay: rMAO-A (Rattus norvegicus, UniProt P21396)
- Construct: from tissue; host or cells: rat brain mitochondrial homogenate
- test_summary: rat MAO-A inhibition, kynuramine spectrophotometric assay
- Type: biochemical
- applied_conditions: read-out: MAO-A % inhibition at 10 µM; rat brain homogenates; 10 µM
Numbers only, in %.

Identify the measured inhibition at 10 µM of "COc1ccc2cc(CN(C)Cc3cccc(F)c3)c(=O)oc2c1" for rMAO-A (Rattus norvegicus, UniProt P21396).
6

One more molecule: "COc1cc2cc(CN(C)Cc3cccc(Cl)c3)c(=O)oc2cc1OC"
7

Please look at the items below and tell me inhibition at 10 µM for each one, in order.
1. COc1cc2cc(CNCc3ccc(C#N)cc3)c(=O)oc2cc1OC
2. COc1ccc2cc(CN(C)Cc3cccc(C#N)c3)c(=O)oc2c1

1. 20
2. 9.2

----------
- target_of_assay: rMAO-B (Rattus norvegicus)
- Construct: from tissue; host or cells: rat brain mitochondrial homogenate
- Sequence (P19643 whole entry): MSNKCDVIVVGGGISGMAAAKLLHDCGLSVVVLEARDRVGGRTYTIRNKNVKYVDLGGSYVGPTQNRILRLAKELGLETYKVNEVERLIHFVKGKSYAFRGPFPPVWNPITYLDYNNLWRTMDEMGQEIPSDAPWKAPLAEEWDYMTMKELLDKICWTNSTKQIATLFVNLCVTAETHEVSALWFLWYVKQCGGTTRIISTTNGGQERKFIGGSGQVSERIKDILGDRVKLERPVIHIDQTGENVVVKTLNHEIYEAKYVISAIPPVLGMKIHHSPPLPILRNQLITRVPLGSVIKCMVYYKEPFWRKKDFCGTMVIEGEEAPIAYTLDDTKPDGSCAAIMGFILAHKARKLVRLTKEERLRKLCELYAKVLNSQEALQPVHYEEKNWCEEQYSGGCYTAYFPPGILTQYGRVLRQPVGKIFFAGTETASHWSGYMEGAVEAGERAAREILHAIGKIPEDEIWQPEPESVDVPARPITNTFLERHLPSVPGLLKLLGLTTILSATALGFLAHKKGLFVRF
- test_summary: rat MAO-B inhibition, kynuramine spectrophotometric assay
- Format: biochemical
readout_name: pIC50
One number for each entry, as −log10 of the molar value.

Identify the measured pIC50 of C#CCN(C)Cc1cc2cc(OC)c(OC)cc2oc1=O.Cl [Compound 3h] for rMAO-B (Rattus norvegicus).
8.55

----------
I'd appreciate it if you could supply pIC50 values for the items below.
- target_of_assay: electric eel AChE (eeAChE) (Electrophorus electricus, UniProt O42275)
- Construct: purchased Sigma Aldrich, Milan, Italy
- Sequence (O42275 24-633): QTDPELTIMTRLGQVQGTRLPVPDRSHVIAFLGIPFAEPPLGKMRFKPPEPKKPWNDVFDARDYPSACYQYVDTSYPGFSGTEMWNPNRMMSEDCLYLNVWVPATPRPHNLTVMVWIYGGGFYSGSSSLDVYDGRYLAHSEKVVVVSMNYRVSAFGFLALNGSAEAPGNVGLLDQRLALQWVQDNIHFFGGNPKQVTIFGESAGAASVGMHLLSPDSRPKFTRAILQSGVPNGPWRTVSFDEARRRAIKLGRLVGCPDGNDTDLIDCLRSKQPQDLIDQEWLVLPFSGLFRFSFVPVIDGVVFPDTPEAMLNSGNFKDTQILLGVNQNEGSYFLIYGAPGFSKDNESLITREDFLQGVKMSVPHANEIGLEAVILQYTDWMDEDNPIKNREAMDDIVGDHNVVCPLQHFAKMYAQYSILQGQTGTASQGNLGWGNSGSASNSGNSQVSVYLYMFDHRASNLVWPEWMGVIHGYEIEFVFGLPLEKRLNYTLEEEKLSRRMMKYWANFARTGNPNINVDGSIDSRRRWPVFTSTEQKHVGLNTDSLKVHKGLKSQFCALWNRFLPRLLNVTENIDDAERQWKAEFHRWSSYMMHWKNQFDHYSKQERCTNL
- test_summary: biochemical
- applied_conditions: AChE IC50, from electric eel
Answers are plain numbers, as −log10 of the molar value.

Field: example entries. Status: answers known.
Identify the measured pIC50 of "C#CCN(C)Cc1cc2ccc(OC)cc2oc1=O" for electric eel AChE (eeAChE) (Electrophorus electricus, UniProt O42275).
4.85

One more compound: "COc1cc2cc(CN(C)Cc3cccc(Cl)c3)c(=O)oc2cc1OC"
5.36

One more compound: "CN(Cc1cccc(F)c1)Cc1cc2ccccc2oc1=O"
5.17

Proceed to the following item.
Identify the measured pIC50 of "CNCc1cc2cc(OC)c(OC)cc2oc1=O" for electric eel AChE (eeAChE) (Electrophorus electricus, UniProt O42275).
4.89

----------
- Test system: P-gp (MDR1)
- test_summary: in vitro
- applied_conditions: dog, MDCK-MDR1, pH 7.4
readout_name: Papp B→A at 120 min, 75 µM (×10⁻⁶ cm/s)
Give bare numbers, in ×10⁻⁶ cm/s.

Would you kindly share the measured Papp B→A at 120 min, 75 µM for C#CCN(C)Cc1cc2cc(OC)c(OC)cc2oc1=O.Cl [Compound 3h] ?
21.8

----------
- target_of_assay: equine serum butyrylcholinesterase (esBChE) (Equus caballus, UniProt P81908)
- Construct: BChE from equine serum (13 U/mg; Sigma); purchased Sigma; host or cells: equine serum
- Sequence (P81908 whole entry): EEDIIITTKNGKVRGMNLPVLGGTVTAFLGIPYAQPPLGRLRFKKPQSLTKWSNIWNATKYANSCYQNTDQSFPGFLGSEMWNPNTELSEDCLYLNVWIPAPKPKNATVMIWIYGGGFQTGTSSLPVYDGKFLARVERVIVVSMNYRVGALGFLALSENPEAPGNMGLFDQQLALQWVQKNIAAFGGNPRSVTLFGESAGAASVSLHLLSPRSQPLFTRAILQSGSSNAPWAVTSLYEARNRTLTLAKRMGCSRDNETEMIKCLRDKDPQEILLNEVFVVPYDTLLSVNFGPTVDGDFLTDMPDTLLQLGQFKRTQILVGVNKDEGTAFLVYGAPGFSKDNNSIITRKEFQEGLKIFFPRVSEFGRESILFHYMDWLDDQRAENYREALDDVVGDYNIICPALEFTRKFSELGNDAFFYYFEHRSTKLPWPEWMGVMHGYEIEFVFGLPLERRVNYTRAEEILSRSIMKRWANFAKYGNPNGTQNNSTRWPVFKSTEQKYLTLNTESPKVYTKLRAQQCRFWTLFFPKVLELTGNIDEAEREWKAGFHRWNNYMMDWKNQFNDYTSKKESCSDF
- test_summary: BChE inhibition, Ellman's method
- Format: biochemical
- applied_conditions: read-out: BChE % inhibition at 10 µM; from equine serum; 10 µM
readout_name: inhibition at 10 µM

Field: example entries. Status: answers known.
Identify the measured inhibition at 10 µM of COc1ccc2cc(CN(C)Cc3cccc(C#N)c3)c(=O)oc2c1 [Compound 3e] for equine serum butyrylcholinesterase (esBChE) (Equus caballus, UniProt P81908).
< 5%

One more compound: C#CCN(C)Cc1cc2ccccc2oc1=O [Compound 3c]
< 5%

One more compound: C#CCN(C)Cc1cc2cc(OC)c(OC)cc2oc1=O.Cl [Compound 3h]
< 5%

Proceed to the following item.
Identify the measured inhibition at 10 µM of C#CCN(C)Cc1cc2cc(OC)c(O)cc2oc1=O [Compound 8] for equine serum butyrylcholinesterase (esBChE) (Equus caballus, UniProt P81908).
< 5%
